assay: Kinetic solubility assay; assay type: physicochemical; settings: kinetic from dmso stock
For each entry below, report its solubility kinetic value.

Would you mind telling me what solubility kinetic value was observed for C=C[C@H]1[C@H]2CCC[C@]1(c1cccc(O)c1)CCN2CC1CC1 [compound 15] ?
> 29 µg/mL

Given the entry C=C[C@H]1[C@H]2CCC[C@]1(c1cccc(O)c1)CCN2CCc1cccc([N+](=O)[O-])c1 [compound 18] , report its measured solubility kinetic.
> 39 µg/mL

What value of solubility kinetic has been reported for the following compound? C=C[C@H]1C2CCCC1(c1cccc(O)c1)CCN2CCc1ccccc1[N+](=O)[O-] (stereo in doubt) [compound 24]
> 39 µg/mL

Name the recorded solubility kinetic for C=C[C@H]1[C@H]2CCC[C@]1(c1cccc(C(N)=O)c1)CCN2CCc1ccccc1 [compound 5] .
5.1 µg/mL

Consider the compound C=C[C@H]1[C@H]2CCC[C@]1(c1cccc(O)c1)CCN2CCc1ccccc1 [DC-1–76.2, reference compound] and give its measured solubility kinetic.
34 µg/mL

Which solubility kinetic reading was recorded for the compound C=C[C@H]1[C@H]2CCC[C@]1(c1cccc(O)c1)CCN2CCc1ccc(O)cc1 [compound 20] ?
> 34 µg/mL

For the compound C=C[C@H]1[C@H]2CCC[C@]1(c1cccc(O)c1)CCN2CCc1ccc([N+](=O)[O-])cc1 [compound 17] , what solubility kinetic is on record?
10.6 µg/mL

Would you mind telling me what solubility kinetic value was observed for C=C[C@H]1[C@H]2CCC[C@]1(c1cccc(O)c1)CCN2CCc1cccs1 [compound 16] ?
> 35 µg/mL

Given the compound C=C[C@H]1[C@H]2CCC[C@]1(c1cccc(O)c1)CCN2CCc1ccc(F)cc1 [compound 19] , what is its reported solubility kinetic?
> 36 µg/mL

Please give the measured solubility kinetic for this compound: C=C[C@H]1[C@H]2CCC[C@]1(c1cccc(NC(C)=O)c1)CCN2CCc1ccccc1 [compound 3]
38 µg/mL

Form field: reported solubility kinetic of C=C[C@H]1[C@H]2CCC[C@]1(c1cccc(O)c1)CCN2C [compound 11]
> 25 µg/mL

Dear colleague, I am looking for the recorded solubility kinetic of the following compound: C=C[C@@H]1[C@H]2CCC[C@]1(c1cccc(O)c1)CCN2C [compound 10]
> 25 µg/mL

---

assay: Multi-point cytosol stability assay, mouse; type: in vitro ADME; settings: mouse cytosol fractions, pH 7.4
For each entry below, report its half-life at 1 μM value.

# get_value(readout='half-life at 1 μM', item= C=C[C@@H]1[C@H]2CCC[C@]1(c1cccc(O)c1)CCN2C [compound 10] )
> 2 h

Query (compound): C=C[C@H]1[C@H]2CCC[C@]1(c1cccc(O)c1)CCN2CCc1ccc(O)cc1 [compound 20] ; field requested: half-life at 1 μM
> 2 h

Which half-life at 1 μM value is on record for C=C[C@H]1[C@H]2CCC[C@]1(c1cccc(C(N)=O)c1)CCN2CCc1ccccc1 [compound 5] ?
> 2 h

---

assay: Multi-point cytosol stability assay, human; assay type: in vitro ADME; conditions: human cytosol fractions, pH 7.4
test readout: half-life at 1 μM

What half-life at 1 μM value was documented for this compound, C=C[C@H]1[C@H]2CCC[C@]1(c1cccc(O)c1)CCN2CC1CC1 ?
> 2 h

// half-life at 1 μM lookup, key: C=C[C@H]1[C@H]2CCC[C@]1(c1cccc(O)c1)CCN2CCc1ccc(O)cc1
> 2 h

What does the data say about its half-life at 1 μM? Entry: C=C[C@H]1[C@H]2CCC[C@]1(c1cccc(O)c1)CCN2CCc1ccc([N+](=O)[O-])cc1
> 2 h

---

Assign IC50 to each entry below.
target: human δ-opioid receptor (OPRD1) (Homo sapiens); experiment: Forskolin-induced cAMP accumulation assay, DOR antagonist mode
Sequence (P41143 whole entry): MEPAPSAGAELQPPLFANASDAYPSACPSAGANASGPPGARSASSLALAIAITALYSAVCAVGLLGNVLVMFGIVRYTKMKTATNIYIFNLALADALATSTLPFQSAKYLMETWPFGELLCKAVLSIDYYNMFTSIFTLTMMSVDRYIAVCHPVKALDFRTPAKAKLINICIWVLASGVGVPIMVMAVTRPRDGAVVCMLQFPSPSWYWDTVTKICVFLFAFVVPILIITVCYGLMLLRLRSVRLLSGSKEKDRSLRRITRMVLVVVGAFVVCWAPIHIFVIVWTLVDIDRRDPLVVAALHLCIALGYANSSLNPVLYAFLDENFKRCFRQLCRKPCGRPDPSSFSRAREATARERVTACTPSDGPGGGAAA

Form field: reported IC50 of C=C[C@@H]1[C@H]2CCC[C@]1(c1cccc(O)c1)CCN2C
> 10 µM

Which IC50 is reported for this compound? C=C[C@H]1[C@H]2CCC[C@]1(c1cccc(O)c1)CCN2CC1CC1
> 10 µM

Look up IC50: C=C[C@H]1[C@H]2CCC[C@]1(c1cccc(O)c1)CCN2C
> 10 µM
